Each entry below lists one item and its recorded IC50 value.
- SYSTEM NAME: Erk2 (Homo sapiens)
- Sequence (P28482 2-360 limits assumed): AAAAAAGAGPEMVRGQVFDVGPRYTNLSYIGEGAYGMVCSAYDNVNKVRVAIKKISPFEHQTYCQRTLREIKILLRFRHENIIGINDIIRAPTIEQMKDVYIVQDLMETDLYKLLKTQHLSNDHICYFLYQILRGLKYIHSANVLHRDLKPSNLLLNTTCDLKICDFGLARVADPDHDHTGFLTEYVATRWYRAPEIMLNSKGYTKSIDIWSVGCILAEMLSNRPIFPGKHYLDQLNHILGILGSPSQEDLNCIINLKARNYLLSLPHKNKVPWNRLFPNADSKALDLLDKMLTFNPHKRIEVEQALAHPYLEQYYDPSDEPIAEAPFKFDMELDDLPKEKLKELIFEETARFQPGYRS
State the answer as a number, implicitly in µM.

INSERT INTO measurements (molecule, system_name, experimental_readout, test_value) VALUES
  ('CCNC(=O)Nc1ccc2ncc(-c3ccc(O)cc3)nc2n1 [Compound 43]', 'Erk2 (Homo sapiens)', 'IC50', 0.006),
  ('CCNC(=O)Nc1ccc2ncc(-c3ccc(C#N)s3)nc2n1 [Compound 174]', 'Erk2 (Homo sapiens)', 'IC50', 4.9);

**Query** Tell us which IC50 value is on record for CCNC(=O)Nc1ccc2ncc(-c3cccc(O)c3)nc2n1 [Compound 151]
**Result** 0.104

**Query** Tell us which IC50 value is on record for CNC(=S)Nc1ccc2ncc(-c3ccc(N)cc3)nc2n1 [Compound 44]
**Result** 2.5

**Query** Tell us which IC50 value is on record for CCNC(=O)Nc1ccc2ncc(Nc3ccc(C)cc3)nc2n1 [Compound 150]
**Result** 18.7

**Query** Tell us which IC50 value is on record for CCNC(=O)Nc1ccc2ncc(-c3ccc(OP(=O)(O)O)c(OC)c3)nc2n1 [Compound 169]
**Result** 2.7
